The reported numbers originate from paper PMC11820905.

Entries and their measured IC50 follow.
# studyTarget: Carnitine acetyltransferase isolated from pigeon breast muscle (Columba livia, UniProt P52826)
# Construct: CAT (isolated from pigeon breast muscle, ammonium sulfate suspension, CAS Number: 9029-90-7)
# Sequence (P52826 31-627): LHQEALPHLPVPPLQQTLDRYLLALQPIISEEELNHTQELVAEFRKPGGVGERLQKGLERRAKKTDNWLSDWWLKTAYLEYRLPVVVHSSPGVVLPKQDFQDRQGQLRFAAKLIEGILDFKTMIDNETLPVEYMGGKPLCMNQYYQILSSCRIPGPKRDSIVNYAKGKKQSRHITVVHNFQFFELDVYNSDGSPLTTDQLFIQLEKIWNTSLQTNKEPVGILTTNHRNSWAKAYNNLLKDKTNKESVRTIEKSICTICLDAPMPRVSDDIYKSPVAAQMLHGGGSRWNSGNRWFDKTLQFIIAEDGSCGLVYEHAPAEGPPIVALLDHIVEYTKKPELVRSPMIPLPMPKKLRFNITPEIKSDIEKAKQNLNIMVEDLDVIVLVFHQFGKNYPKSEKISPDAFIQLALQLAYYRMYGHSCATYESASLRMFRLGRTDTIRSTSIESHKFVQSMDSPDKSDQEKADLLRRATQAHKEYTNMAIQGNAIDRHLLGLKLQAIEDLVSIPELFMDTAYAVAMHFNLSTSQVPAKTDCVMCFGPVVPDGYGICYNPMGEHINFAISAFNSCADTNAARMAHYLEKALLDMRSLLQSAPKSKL
# methodNotes: CAT inhibition, IC50 determination (DTNB/Ellman reaction, absorbance at 405 nm)
# conditionSet: c(L-carnitine) = 50.56 μM; 5 min preincubation at 37 °C; eight inhibitor concentrations, triplicate over three days
propertyMeasured: IC50 (mM)

>>> quantitativereadout("C[N+]1(CCCC(=O)[O-])CCCC1")
14.1
>>> quantitativereadout("CCOC(=O)CCC[N+]1(C)CCOCC1")
29.9
>>> quantitativereadout("C[N+]1(CCCC(=O)[O-])CCOCC1 [Morph-GBB, 4-(4-methylmorpholino-4-ium)butanoate]")
23.7
>>> quantitativereadout("CCOC(=O)CCC[N+]1(C)CCCC1")
28.5
>>> quantitativereadout("C[N+]1(CCCC(=O)[O-])CCCCC1")
5.78
>>> quantitativereadout("O=C([O-])CCC[n+]1ccc2ccccc2c1 [i-qui-GBB, 4-(isoquinolin-2-ium-2-yl)butanoate]")
2.24
>>> quantitativereadout("O=C([O-])CCC[n+]1ccccc1 [Pyr-GBB, 4-(pyridin-1-ium-1-yl)butanoate]")
43.6
>>> quantitativereadout("CCOC(=O)CCC[N+](C)(C)CC [MeGBB-ester, reference compound]")
21.6
>>> quantitativereadout("Cn1cc[n+](CCCC(=O)[O-])c1")
14
>>> quantitativereadout("CN(C)c1cc[n+](CCCC(=O)[O-])cc1")
10.4
>>> quantitativereadout("C[N+](C)(C)NCCC(=O)[O-] [Meldonium, reference compound]")
11.4
>>> quantitativereadout("CC[N+](C)(C)CCCC(=O)[O-] [MeGBB, 4-(ethyldimethylammonio)butanoate, reference compound]")
9.32
>>> quantitativereadout("CCOC(=O)CCC[N+]1(C)CCCCC1")
22.8

---

# studyTarget: Carnitine acetyltransferase isolated from pigeon breast muscle (Columba livia)
# Construct: CAT (isolated from pigeon breast muscle, ammonium sulfate suspension, CAS Number: 9029-90-7)
# methodNotes: CAT enzyme kinetics, mechanism of inhibition and Ki
# conditionSet: competitive model, nonlinear regression (SigmaPlot); inhibitor 1.88 mM and 3.75 mM
propertyMeasured: Ki (mM)

>>> quantitativereadout("O=C([O-])CCC[n+]1ccc2ccccc2c1 [i-qui-GBB, 4-(isoquinolin-2-ium-2-yl)butanoate]")
3.5
